Where these numbers come from: patent US12344603B2

tested.on: IRE1α (Homo sapiens (Human), UniProt O75460, D688N)
Sequence (O75460 547-977 D688N): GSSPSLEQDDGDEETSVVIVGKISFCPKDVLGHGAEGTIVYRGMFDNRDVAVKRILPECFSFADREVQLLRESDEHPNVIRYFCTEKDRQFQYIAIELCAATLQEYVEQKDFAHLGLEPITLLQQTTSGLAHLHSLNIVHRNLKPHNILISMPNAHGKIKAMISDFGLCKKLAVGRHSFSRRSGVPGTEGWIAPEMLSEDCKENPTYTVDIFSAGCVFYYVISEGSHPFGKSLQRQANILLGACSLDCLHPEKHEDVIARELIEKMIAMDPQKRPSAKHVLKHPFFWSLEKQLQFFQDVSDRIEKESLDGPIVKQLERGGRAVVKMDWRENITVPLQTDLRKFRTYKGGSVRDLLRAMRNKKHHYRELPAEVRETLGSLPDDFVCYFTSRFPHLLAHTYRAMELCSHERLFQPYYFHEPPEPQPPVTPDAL
test.protocol: IRE1α TR-FRET competition binding assay (IRE1α HTRF)
condition: TR-FRET competition binding to kinase domain of IRE1α
measurement.kind: IC50 (nM)
Give bare numbers, in nM.

CC(C)n1c(=O)c(-c2ccc(NS(=O)(=O)CC3CCC4C(C3)C4(F)F)c(F)c2)nc2cnc(N[C@H]3CC[C@H](N(C)C)CC3)nc21 (mixture of isomers)	0.2
CC(C)n1c(=O)c(-c2ccc(NS(=O)(=O)c3ccccc3Cl)nc2)nc2cnc(N[C@H]3CC[C@H](N(C)C)CC3)nc21	0.26
Cc1nc(NS(=O)(=O)c2ccccc2Cl)ccc1-c1nc2cnc(N[C@H]3CC[C@H](N(C)C)CC3)nc2n(C(C)C)c1=O	0.3
CC(C)n1c(=O)c(-c2ccc(NS(=O)(=O)CC3CCCCC3(F)F)c(F)c2)nc2cnc(N[C@H]3CC[C@H](N(C)C)CC3)nc21 (mixture of isomers)	0.2
CC(C)n1c(=O)c(-c2cc(F)c(NS(=O)(=O)Cc3ccccc3F)c(F)c2F)cc2cnc(N[C@@H]3CNC[C@H](O)C3)nc21	0.34

**Q:** Value lookup for IC50; key = CC(C)n1c(=O)c(-c2cc(F)c(NS(=O)(=O)Cc3ccccc3F)c(F)c2F)cc2cnc(N[C@@H]3CNC[C@@H](F)C3)nc21
**A:** 0.16

###

Can you tell me pIC50 for the items I'm about to list?
tested.on: IRE1α (Homo sapiens (Human), UniProt O75460, D688N)
test.protocol: IRE1α TR-FRET competition binding assay (IRE1α HTRF)
condition: TR-FRET competition binding to kinase domain of IRE1α
Structures can show the parent of a compound that is named as a salt.
Give bare numbers, as −log10 of the molar value.

Known results for molecules:
CC(C)n1c(=O)c(-c2cc(F)c(NC(=O)[C@H]3C[C@H]3F)c(F)c2F)cc2cnc(N[C@H]3CC[C@H](N(C)C)CC3)nc21 [Compound 63, hydrochloride]	8.39
CC(n1c(=O)c(-c2ccc(NS(=O)(=O)Cc3ccccc3)c(F)c2F)cc2cnc(N[C@@H]3CNC[C@@H](F)C3)nc21)C(F)(F)F (stereo partly drawn) [Compound 42, trifluoroacetate salt]	8.44
CC(C)n1c(=O)c(-c2cc(F)c(NS(=O)(=O)Cc3ccc(F)cc3)c(F)c2)nc2cnc(N[C@H]3CC[C@H](N(C)C)CC3)nc21 [Example 245]	10.00
CCCS(=O)(=O)Nc1ccc(-c2nc3cnc(N[C@@H]4CNC[C@@H](F)C4)nc3n(C(C)C)c2=O)cc1F [Compound 82]	9.10
CC(C)n1c(=O)c(-c2ccc(NS(=O)(=O)CCC3CCC3)c(F)c2)cc2cnc(N[C@H]3CC[C@H](N(C)C)CC3)nc21 [Example 231]	10.00

We now examine a further molecule.
**Q:** Tell me the measured pIC50 of CC(C)n1c(=O)c(-c2cc(F)c(NS(=O)(=O)Cc3ccc(C#N)cc3)c(F)c2F)cc2cnc(N[C@@H]3CNC[C@@H](F)C3)nc21 [Compound 29] , please.
**A:** 9.68

###

tested.on: IRE1α (Homo sapiens (Human), UniProt O75460, D688N)
test.protocol: IRE1α TR-FRET competition binding assay (IRE1α HTRF)
condition: TR-FRET competition binding to kinase domain of IRE1α
Counter-ions that a name gives are not always drawn.
measurement.kind: pIC50
Answers are plain numbers, as −log10 of the molar value.

Examples from the recorded data:
O=c1c(-c2ccc(NS(=O)(=O)Cc3ccccc3)c(F)c2F)cc2cnc(N[C@@H]3CNC[C@@H](F)C3)nc2n1CCF	9.15
CC(C)n1c(=O)c(-c2cc(F)c(NS(=O)(=O)CCC(F)(F)F)c(F)c2)nc2cnc(N[C@H]3CC[C@H](N(C)C)CC3)nc21	9.70
CC(C)n1c(=O)c(-c2ccc(NS(=O)(=O)CCC(F)(F)F)c(F)c2)cc2cnc(N[C@@H]3CNC[C@@H](F)C3)nc21	9.52

List pIC50 for every entry below, keeping the order given.
1. CC(C)n1c(=O)c(-c2cc(F)c(NS(=O)(=O)Cc3cccc(C#N)c3)c(F)c2F)cc2cnc(N[C@@H]3CNC[C@@H](F)C3)nc21
2. CC(C)n1c(=O)c(-c2cc(F)c(NS(=O)(=O)CCC(F)(F)F)cc2F)cc2cnc(N[C@H]3CC[C@H](N(C)C)CC3)nc21
3. CC(C)n1c(=O)c(-c2ccc(NS(=O)(=O)CC3CCCCC3)c(F)c2)cc2cnc(N[C@H]3CC[C@H](N(C)C)CC3)nc21
4. CCn1c(=O)c(-c2cc(F)c(NS(=O)(=O)Cc3ccc(C(F)(F)F)cc3)c(F)c2F)cc2cnc(N[C@@H]3CNC[C@@H](F)C3)nc21 [Compound 50, hydrochloride]
5. CC(C)n1c(=O)c(-c2ccc(NS(=O)(=O)CCC(F)(F)F)c(F)c2)cc2cnc(N[C@H]3CCC[C@@H](N)C3)nc21 [Compound 108, hydrochloride]

**A:**
1: 9.68; 2: 9.60; 3: 9.82; 4: 9.66; 5: 7.64

Give measured pIC50 for every item shown.
1. CC(C)n1c(=O)c(-c2cc(F)c(NS(=O)(=O)CCC(F)(F)F)c(F)c2)nc2cnc(N[C@@H]3CC[C@@H](N(C)C)[C@H](F)C3)nc21 (stereo in doubt) [Compound 168B]
2. CC(C)n1c(=O)c(-c2ccc(NS(=O)(=O)c3cccnc3)c(F)c2)nc2cnc(N[C@H]3CC[C@H](N(C)C)CC3)nc21 [Compound 191, hydrochloride]
3. CCn1c(=O)c(-c2ccc(NS(=O)(=O)CCC(F)(F)F)c(F)c2F)cc2cnc(N[C@@H]3CNC[C@@H](F)C3)nc21
4. CC(C)n1c(=O)c(-c2ccc(NS(=O)(=O)CCC(F)(F)F)nc2)nc2cnc(N[C@H]3CC[C@H](N(C)CCF)CC3)nc21

**A:**
1: 9.64; 2: 9.60; 3: 8.30; 4: 9.51

I have 5 compounds here; please give me pIC50 for each one.
1. CCC(F)(F)CS(=O)(=O)Nc1c(F)cc(-c2cc3cnc(N[C@H]4CC[C@H](N(C)C)CC4)nc3n(C(C)C)c2=O)c(F)c1F
2. CC(C)n1c(=O)c(-c2ccc(NS(=O)(=O)Cc3ccccc3)c(F)c2F)nc2cnc(N[C@@H]3CNC[C@@H](F)C3)nc21
3. CC(C)n1c(=O)c(-c2ccc(NS(=O)(=O)CCC(F)(F)F)c(F)c2)nc2cnc(N[C@H]3CC[C@H](N(C)C)CC3)nc21
4. CC(C)n1c(=O)c(-c2ccc(NS(=O)(=O)CCC(C)(F)F)nc2)nc2cnc(N[C@H]3CC[C@H](N(C)C)CC3)nc21
5. CCCS(=O)(=O)Nc1ccc(-c2nc3cnc(N[C@H]4CC[C@H](N(C)C)CC4)nc3n(C(C)C)c2=O)c(F)c1

**A:**
9.74
9.15
9.74
9.40
9.74

Value sought for every listed compound: pIC50.
1. CC(C)n1c(=O)c(-c2cc(F)c(NS(=O)(=O)Cc3ccn(CC(F)(F)F)n3)c(F)c2F)cc2cnc(N[C@@H]3CNC[C@@H](F)C3)nc21
2. Cc1ccc(CS(=O)(=O)Nc2c(F)cc(-c3cc4cnc(N[C@H]5CC[C@H](N(C)C)CC5)nc4n(C(C)C)c3=O)cc2F)cc1
3. CC(C)n1c(=O)c(-c2cc(F)c(NS(=O)(=O)Cc3ccccc3)c(F)c2)nc2cnc(N[C@H]3CC[C@H](N(C)C)CC3)nc21
4. CC(C)n1c(=O)c(-c2ccc(NS(=O)(=O)C3CC4(CCC4)C3)c(F)c2)nc2cnc(N[C@H]3CC[C@H](N(C)C)CC3)nc21

**A:**
9.24
8.77
10.00
9.70

###

tested.on: IRE1α (Homo sapiens (Human), UniProt O75460, D688N)
test.protocol: IRE1α TR-FRET competition binding assay (IRE1α HTRF)
condition: TR-FRET competition binding to kinase domain of IRE1α
Structures can show the parent of a compound that is named as a salt.
Consider the following molecules; for each one, report its pIC50.
Give bare numbers, as −log10 of the molar value.

Past entries and their recorded results:
CC(C)n1c(=O)c(-c2cc(F)c(NS(=O)(=O)Cc3ccc(F)cc3)c(F)c2F)cc2cnc(N[C@H]3CC[C@H](N(C)CCF)CC3)nc21 [Compound 141]	9.74
CC(C)n1c(=O)c(-c2ccc(NS(=O)(=O)C3CCCC3)c(F)c2)cc2cnc(N[C@H]3CC[C@H](N(C)C)CC3)nc21 [Compound 134, hydrochloride]	9.72

Attention now turns to another entry.
**Q:** Any idea what its pIC50 is? The molecule is CC(C)n1c(=O)c(-c2cnc(NS(=O)(=O)CCC(F)(F)F)c(F)c2)cc2cnc(N[C@H]3CC[C@H](N(C)C)CC3)nc21 [Example 222]
**A:** 9.52
